Sourced from the supplement of paper PMC7125110

B1: glmS ribozyme (parent)
chain: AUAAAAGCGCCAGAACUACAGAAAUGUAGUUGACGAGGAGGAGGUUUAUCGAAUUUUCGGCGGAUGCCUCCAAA

- Variants of: B1
- assay: self-cleavage kobs at 40 uM GlcN6P; higher = faster cleavage; RNA array
- condition.set: with glucosamine-6-phosphate
Fewer inactive variants are shown than the library holds.
property.label: self-cleavage kobs at 40 uM GlcN6P (s⁻¹)
State the answer as a number, implicitly in s⁻¹.

Below are worked cases with known answers.
| mutant.name | self-cleavage kobs at 40 uM GlcN6P (s⁻¹) |
| --- | --- |
| A14U A53C | 3.59e-05 |
| A15C C67U | 7.54e-05 |
| G40U U45G | 7.67e-05 |
| A53G C71U | 0.000921 |
| A53C U54A | 0.000184 |
| A39U A53U | 0.000461 |
| U30A | 0.000227 |
| U46C A53U | 3.88e-05 |

# input Entry C11A G59U has what self-cleavage kobs at 40 uM GlcN6P?
# output 0.000273

# input Dear colleague, I am looking for the recorded self-cleavage kobs at 40 uM GlcN6P of the following variant: C11G U69G C71U
# output 4.35e-05
